tested on: U2OS; experiment: Incucyte cell viability with U2OS; format: toxicity, cell-based; conditions: human, 24 h, 10 µM, compound concentration 10 uM, replicate number 1; note: unitless GR value; below 1 slowed growth and below 0 cell loss
measured property: Growth Rate
Please respond with just the number, no unit label.

Incoming: I'd like to know its Growth Rate. The molecule in question is `Cn1cnc(Cn2ccc3ccc(CNCc4[nH]c5ccccc5c4[C@H]4NC(=O)c5ccc(O)cc54)cc32)c1`
Outgoing: 0.91

Incoming: I'd like to know its Growth Rate. The molecule in question is `CN(C)c1ccc(-c2cc3ncccc3c(OCCCCO)n2)cc1.O=C(O)C(F)(F)F`
Outgoing: 0.91

Incoming: I'd like to know its Growth Rate. The molecule in question is CN(C)CCCN1c2ccccc2Sc2ccc(Cl)cc21.Cl [CHLORPROMAZINE HYDROCHLORIDE]
Outgoing: 0.91

Incoming: I'd like to know its Growth Rate. The molecule in question is `C1=Cc2ccccc2C(=C2CCN(CCCCc3nn[nH]n3)CC2)c2ccccc21`
Outgoing: 0.89

Incoming: I'd like to know its Growth Rate. The molecule in question is `COc1cc(OC)cc(-c2cc3cnc(N)nc3nc2NC(=O)NC(C)(C)C)c1`
Outgoing: 0.91

Incoming: I'd like to know its Growth Rate. The molecule in question is COc1cc(C(=O)O)ncc1C#Cc1ccccc1NS(=O)(=O)c1cccc2c(N(C)C)ccnc12 [MSC-0516]
Outgoing: 0.89

###

Please provide measured Growth Rate for the entries that follow.
tested on: Fibroblast; assay: Incucyte cell viability with human fibroblast; type: toxicity, cell-based; conditions: 18 h, 10 µM, compound concentration 10 uM, replicate number 1; note: unitless GR value; below 1 slowed growth and below 0 cell loss
Please respond with just the number, no unit label.

Incoming: // map CCS(=O)(=O)c1ccc(OC)c(Nc2ncc(-c3cccc(F)c3)o2)c1 [GW621970X] to recorded Growth Rate (system: Fibroblast)
Outgoing: 0.72

Incoming: // map `CN(C)CC#Cc1ccc2[nH]c3c(c2c1)-c1nc(N)ncc1CCC3` to recorded Growth Rate (system: Fibroblast)
Outgoing: 0.27

Incoming: // map `N=C(N)NCCC[C@H](NC(=O)CC1(CC(=O)N2CCN(C(c3ccccc3)c3ccccc3)CC2)CCCC1)C(=O)NCc1ccccc1.O=C(O)C(F)(F)F.O=C(O)C(F)(F)F` to recorded Growth Rate (system: Fibroblast)
Outgoing: 0.47

Incoming: // map `Cl.Clc1cc2cc(c1)-c1cnn3ccc(nc13)NCCOCCO2` to recorded Growth Rate (system: Fibroblast)
Outgoing: 0.22

Incoming: // map `CC[C@](C)(O)C#Cc1cc2c(ccn2-c2cc(OC)nc(N)n2)cn1` to recorded Growth Rate (system: Fibroblast)
Outgoing: 0.63

Incoming: // map `COc1cc(-c2nn([C@H]3CC[C@H](N4CCN(C(C)=O)CC4)CC3)c3ncnc(N)c23)ccc1NC(=O)c1cc2ccccc2n1C` to recorded Growth Rate (system: Fibroblast)
Outgoing: -0.56

Incoming: // map `CN(CCCCCCC1=C(c2cc(F)cc(F)c2)CCCc2cc(O)ccc21)CCCCS(=O)(=O)CCCC(F)(F)F` to recorded Growth Rate (system: Fibroblast)
Outgoing: -0.89

###

system: Fibroblast; test: Incucyte cell viability with human fibroblast; type: toxicity, cell-based; conditions: 0 h, 10 µM, compound concentration 10 uM, replicate number 2; note: unitless GR value; below 1 slowed growth and below 0 cell loss
Please provide measured Growth Rate for the entries that follow.
Please respond with just the number, no unit label.

Incoming: I'd like to know its Growth Rate. The molecule in question is `CC1(C)CC(=O)c2c(SCCO)sc(-c3nccs3)c2C1`
Outgoing: -0.3

Incoming: I'd like to know its Growth Rate. The molecule in question is O=C(Nc1ccccc1Br)N[C@@H]1CCN(c2ccc(C(F)(F)F)cn2)C1 [SB-705498]
Outgoing: 0.7

Incoming: I'd like to know its Growth Rate. The molecule in question is Cl.Cl.N=C(N)NCCC[C@H](NC(=O)CC1(CC(=O)N2CCN(C3c4ccccc4NC(=O)c4ccccc43)CC2)CCCC1)C(=O)NCCn1c(=O)n(-c2ccccc2)n(-c2ccccc2)c1=O (stereo partly specified)
Outgoing: 0.97

Incoming: I'd like to know its Growth Rate. The molecule in question is `CC1(C)Oc2ncnc(N)c2N=C1c1ccc([C@H]2CC[C@H](CC(=O)O)CC2)cc1`
Outgoing: -0.9

Incoming: I'd like to know its Growth Rate. The molecule in question is Clc1ccccc1C(c1ccccc1)(c1ccccc1)n1ccnc1 [CLOTRIMAZOLE]
Outgoing: 0.29

Incoming: I'd like to know its Growth Rate. The molecule in question is `CNc1nc(NCc2ncccn2)c2c(-c3ccc4ncccc4c3)c[nH]c2n1`
Outgoing: -0.54
